Values compiled from patent US20250197436A1.

# Tested on: microbiota present in the faecal samples
# METHOD: Faecal fermentation, distribution of oligosaccharides (HPAEC-PAD peak areas)
# STATED CONDITIONS: Comp. Ex. 1 sample, 24 h, Donor A
Listed here: items and their measured Peak areas.
Answer using only a numeral; do not append any unit.

Solved entries:
[[record]]
compound = "OC[C@H]1O[C@@H](O[C@H]2[C@@H](O)[C@@H](CO)O[C@@H](O[C@H]3[C@H](O)[C@@H](O)C(O)O[C@@H]3CO)[C@@H]2O)[C@H](O)[C@@H](O)[C@H]1O (stereo partly shown)"
observed_measurement = 0.4

[[record]]
compound = "O=C[C@H](O)[C@@H](O)[C@H](O)[C@H](O)CO"
observed_measurement = 0.0

[[record]]
compound = "OC[C@H]1O[C@@H](O[C@H]2[C@@H](O)[C@@H](CO)O[C@@H](O[C@H]3[C@@H](O)[C@@H](CO)O[C@@H](O[C@H]4[C@H](O)[C@@H](O)C(O)O[C@@H]4CO)[C@@H]3O)[C@@H]2O)[C@H](O)[C@@H](O)[C@H]1O (stereo partly shown)"
observed_measurement = 0.5


Here's the next entry for you.
So what's the measured Peak areas for this one? OC[C@H]1O[C@@H](OC[C@H]2OC(O)[C@H](O)[C@@H](O)[C@@H]2O)[C@H](O)[C@@H](O)[C@H]1O (stereo partly shown)
0.0

* * *

# Test system: microbiota present in the faecal samples
# METHOD: Faecal fermentation, distribution of oligosaccharides (HPAEC-PAD peak areas)
# STATED CONDITIONS: Example 2 sample, 6 h, Donor C
METRIC NAME: Peak areas
Answer using only a numeral; do not append any unit.

Solved entries:
[[record]]
molecule = "OC[C@H]1O[C@@H](O[C@@H]2[C@H](O)[C@@H](O)[C@H](O[C@H]3[C@H](O)[C@@H](O)C(O)O[C@@H]3CO)O[C@@H]2CO)[C@H](O)[C@@H](O)[C@H]1O (stereo partly drawn)"
observed_measurement = 1.6

[[record]]
molecule = "OC[C@H]1O[C@@H](O[C@H]2[C@@H](O)[C@@H](CO)O[C@@H](O[C@H]3C(O)O[C@H](CO)[C@@H](O)[C@@H]3O)[C@@H]2O)[C@H](O)[C@@H](O)[C@H]1O (stereo partly drawn)"
observed_measurement = 0.9


Here's the next entry for you.
So what's the measured Peak areas for this one? OC[C@H]1O[C@@H](O[C@H]2[C@@H](O)[C@@H](CO)O[C@@H](O[C@H]3[C@H](O)[C@@H](O)C(O)O[C@@H]3CO)[C@@H]2O)[C@H](O)[C@@H](O)[C@H]1O (stereo partly drawn)
1.2

* * *

# System: microbiota present in the faecal samples
# METHOD: Faecal fermentation, distribution of oligosaccharides (HPAEC-PAD peak areas)
# STATED CONDITIONS: Comp. Ex. 1 sample, 0 h
METRIC NAME: Peak areas
Answer using only a numeral; do not append any unit.

[[record]]
molecule = "OC[C@H]1O[C@@H](O[C@H]2[C@@H](O)[C@@H](CO)O[C@@H](O[C@H]3[C@@H](O)[C@@H](CO)O[C@@H](O[C@H]4[C@H](O)[C@@H](O)C(O)O[C@@H]4CO)[C@@H]3O)[C@@H]2O)[C@H](O)[C@@H](O)[C@H]1O (stereo partly shown)"
observed_measurement = 0.8

[[record]]
molecule = "OC[C@H]1O[C@@H](O[C@H]2[C@@H](O)[C@@H](CO)O[C@@H](O[C@H]3C(O)O[C@H](CO)[C@@H](O)[C@@H]3O)[C@@H]2O)[C@H](O)[C@@H](O)[C@H]1O (stereo partly shown)"
observed_measurement = 2.6

[[record]]
molecule = "OC[C@H]1O[C@@H](O[C@@H]2[C@H](O)[C@@H](O)[C@H](O[C@H]3[C@H](O)[C@@H](O)C(O)O[C@@H]3CO)O[C@@H]2CO)[C@H](O)[C@@H](O)[C@H]1O (stereo partly shown)"
observed_measurement = 27.6


Here's the next entry for you.
So what's the measured Peak areas for this one? O=C[C@H](O)[C@@H](O)[C@H](O)[C@H](O)CO
19.5

* * *

Listed here: items and their measured Peak areas.
# Tested on: microbiota present in the faecal samples
# METHOD: Faecal fermentation, distribution of oligosaccharides (HPAEC-PAD peak areas)
# STATED CONDITIONS: Comp. Ex. 1 sample, 0 h

Solved entries:
[[record]]
compound = "OC[C@H]1O[C@@H](OC[C@H]2OC(O)[C@H](O)[C@@H](O)[C@@H]2O)[C@H](O)[C@@H](O)[C@H]1O (some centres unmarked)"
observed_measurement = 16.2

[[record]]
compound = "O=C[C@H](O)[C@@H](O)[C@@H](O)[C@H](O)CO"
observed_measurement = 0.5

[[record]]
compound = "OC[C@H]1O[C@@H](O[C@H]2[C@@H](O)[C@@H](CO)O[C@@H](O[C@H]3[C@H](O)[C@@H](O)C(O)O[C@@H]3CO)[C@@H]2O)[C@H](O)[C@@H](O)[C@H]1O (some centres unmarked)"
observed_measurement = 1.4

[[record]]
compound = "OC[C@H]1O[C@@H](O[C@H]2[C@H](O)[C@@H](O)C(O)O[C@@H]2CO)[C@H](O)[C@@H](O)[C@H]1O (some centres unmarked)"
observed_measurement = 48.4


Here's the next entry for you.
Notebook entry, microbiota present in the faecal samples assay: Peak areas of OC[C@H]1O[C@@H](O[C@H]2[C@@H](O)[C@@H](CO)O[C@@H](O[C@H]3[C@H](O)[C@@H](CO)OC(O)[C@@H]3O)[C@@H]2O)[C@H](O)[C@@H](O)[C@H]1O (some centres unmarked) = ?
4.7

* * *

Listed here: items and their measured Peak areas.
# Test system: microbiota present in the faecal samples
# METHOD: Faecal fermentation, distribution of oligosaccharides (HPAEC-PAD peak areas)
# STATED CONDITIONS: Example 2 sample, 24 h, Donor B
Answer using only a numeral; do not append any unit.

Solved entries:
[[record]]
molecule = "OC[C@H]1O[C@@H](O[C@H]2[C@@H](O)[C@@H](CO)O[C@@H](O[C@H]3[C@H](O)[C@@H](CO)OC(O)[C@@H]3O)[C@@H]2O)[C@H](O)[C@@H](O)[C@H]1O (stereo partly drawn) [Cpd. ID 29, D-Gal-(β1-3)-D-Gal-(β1-3)-D-Glu]"
target_system = "microbiota present in the faecal samples"
observed_measurement = 0.0

[[record]]
molecule = "OC[C@H]1O[C@@H](O[C@@H]2[C@H](O)[C@@H](O)[C@H](O[C@H]3[C@H](O)[C@@H](O)C(O)O[C@@H]3CO)O[C@@H]2CO)[C@H](O)[C@@H](O)[C@H]1O (stereo partly drawn) [Cpd. ID 11, D-Gal-(β1-4)-D-Gal-(β1-4)-D-Glu]"
target_system = "microbiota present in the faecal samples"
observed_measurement = 1.7

[[record]]
molecule = "OC[C@H]1O[C@@H](O[C@H]2[C@H](O)[C@@H](O)C(O)O[C@@H]2CO)[C@H](O)[C@@H](O)[C@H]1O (some centres unmarked) [Lactose]"
target_system = "microbiota present in the faecal samples"
observed_measurement = 0.4


So what's the measured Peak areas for this one? O=C[C@H](O)[C@@H](O)[C@H](O)[C@H](O)CO [Glucose]
0.0

So what's the measured Peak areas for this one? OC[C@H]1O[C@@H](O[C@H]2[C@@H](O)[C@@H](CO)O[C@@H](O[C@H]3[C@H](O)[C@@H](O)C(O)O[C@@H]3CO)[C@@H]2O)[C@H](O)[C@@H](O)[C@H]1O (stereo partly drawn) [Cpd. ID 12, D-Gal-(β1-3)-D-Gal-(β1-4)-D-Glu]
0.7

* * *

# System: microbiota present in the faecal samples
# METHOD: Faecal fermentation, distribution of oligosaccharides (HPAEC-PAD peak areas)
# STATED CONDITIONS: Comp. Ex. 1 sample, 24 h, Donor A
Listed here: items and their measured Peak areas.
Answer using only a numeral; do not append any unit.

[[record]]
molecule = "OC[C@H]1O[C@@H](O[C@H]2[C@@H](O)[C@@H](CO)O[C@@H](O[C@H]3[C@H](O)[C@@H](CO)OC(O)[C@@H]3O)[C@@H]2O)[C@H](O)[C@@H](O)[C@H]1O (stereo partly drawn) [Cpd. ID 29, D-Gal-(β1-3)-D-Gal-(β1-3)-D-Glu]"
target_system = "microbiota present in the faecal samples"
metric_name = "Peak areas"
observed_measurement = 0.2

[[record]]
molecule = "OC[C@H]1O[C@@H](O[C@H]2[C@H](O)[C@@H](O)C(O)O[C@@H]2CO)[C@H](O)[C@@H](O)[C@H]1O (some centres unmarked) [Lactose]"
target_system = "microbiota present in the faecal samples"
metric_name = "Peak areas"
observed_measurement = 0.4

[[record]]
molecule = "OC[C@H]1O[C@@H](O[C@H]2[C@@H](O)[C@@H](CO)O[C@@H](O[C@H]3C(O)O[C@H](CO)[C@@H](O)[C@@H]3O)[C@@H]2O)[C@H](O)[C@@H](O)[C@H]1O (stereo partly drawn) [Cpd. ID 30, D-Gal-(β1-3)-D-Gal-(β1-2)-D-Glu]"
target_system = "microbiota present in the faecal samples"
metric_name = "Peak areas"
observed_measurement = 0.0

[[record]]
molecule = "OC[C@H]1O[C@@H](O[C@@H]2[C@H](O)[C@@H](O)[C@H](O[C@H]3[C@H](O)[C@@H](O)C(O)O[C@@H]3CO)O[C@@H]2CO)[C@H](O)[C@@H](O)[C@H]1O (stereo partly drawn) [Cpd. ID 11, D-Gal-(β1-4)-D-Gal-(β1-4)-D-Glu]"
target_system = "microbiota present in the faecal samples"
metric_name = "Peak areas"
observed_measurement = 1.9


Here's the next entry for you.
So what's the measured Peak areas for this one? O=C[C@H](O)[C@@H](O)[C@@H](O)[C@H](O)CO [Galactose]
0.0
